Just for reference, PubChem BioAssay (NCI) is where these values come from.

# Test system: ACHN renal
# measurement.protocol: NCI tumour cell line growth inhibition, 48 h
value.type: TGI

{"molecule": "O=C(O)c1cc2c(cc1CC(Cc1ccc3c(c1)CCCC3)C(=O)O)CCCC2 (configuration not stated)", "TGI": "> 100 µM"}

Hey, ACHN renal data for COc1cccc(/C=N/NC(=O)c2ccccc2N2CCCC2)c1O : TGI came out at > 100 µM

Hey, ACHN renal data for Cc1cc(C)n(-c2ccnc3cc(Cl)ccc23)n1 : TGI came out at > 100 µM

Hey, ACHN renal data for O=C(/C(=C/c1ccc([N+](=O)[O-])cc1)SCc1ccc(Cl)cc1)c1ccc(F)cc1 : TGI came out at 3.33 µM

Hey, ACHN renal data for CC[C@@]1(O)C(=O)OCc2c1cc1n(c2=O)Cc2cc3cccc([N+](=O)[O-])c3nc2-1 : TGI came out at 3.01 µM

Hey, ACHN renal data for Cn1ccc(C(=O)NCCN(CCNC(=O)c2ccn(C)c(=O)c2O)CCNC(=O)c2ccn(C)c(=O)c2O)c(O)c1=O : TGI came out at > 100 µM

Hey, ACHN renal data for N#C[Se]CCN1C(=O)C2C(C1=O)[C@H]1C=C[C@@H]2S1 (some centres not stated) : TGI came out at 3.99 µM

---

# Test system: NCI-H522 lung
# measurement.protocol: NCI tumour cell line growth inhibition, 48 h
value.type: TGI

{"compound": "CCCCCCCCC/C(=N\\NC(=O)c1ccncc1)c1ccc(O)c(O)c1O", "target.under.test": "NCI-H522 lung", "value.type": "TGI", "readout.value": "23.1 µM"}
{"compound": "Cc1nc(-c2nc(-c3ccc(OC(F)(F)F)cc3)no2)nn1Cc1cccc(N2CCC(S(C)(=O)=O)CC2)c1", "target.under.test": "NCI-H522 lung", "value.type": "TGI", "readout.value": "> 100 µM"}
{"compound": "Cn1ccc(C(=O)NCCN(CCNC(=O)c2ccn(C)c(=O)c2O)CCNC(=O)c2ccn(C)c(=O)c2O)c(O)c1=O", "target.under.test": "NCI-H522 lung", "value.type": "TGI", "readout.value": "> 100 µM"}
{"compound": "CCOC(=O)Cc1csc(Nc2ccc(OCC)cc2)n1", "target.under.test": "NCI-H522 lung", "value.type": "TGI", "readout.value": "> 100 µM"}
{"compound": "O=c1[nH]c(=O)c2cc3cc(C4CC(O)C(CO)O4)ccc3cc2[nH]1 (stereo not given)", "target.under.test": "NCI-H522 lung", "value.type": "TGI", "readout.value": "87.8 µM"}

Could you now consider this next compound?
Hey, NCI-H522 lung data for CC(N)(/C=C/c1ccccc1)C(=O)O (stereo not given) : TGI came out at > 100 µM

---

# Tested on: A549 NSCLC
# measurement.protocol: NCI tumour cell line growth inhibition, 48 h
Recorded TGI determines the label; the label ranges are lower bin = under 20 µM, middle bin = from 20 µM up to 60 µM, upper bin = 60 µM and over

Would you please look over these solved cases?
{"molecule": "COc1ccc(Nc2cc(C)nc(NCc3ccccc3)n2)cc1", "group": "middle bin"}
{"molecule": "Cc1cc(C)n(-c2ccnc3cc(Cl)ccc23)n1", "group": "upper bin"}
{"molecule": "CC[C@@H](C(=O)[C@H](C)[C@H](O)[C@@H](C)[C@H]1O[C@H]([C@@H](CC)C(=O)N(CC)CC)CC[C@H]1C)C1O[C@]2(C=C[C@@H](O)[C@]3(CC[C@@](C)([C@H]4CC[C@](O)(CC)[C@H](C)O4)O3)O2)[C@H](C)C[C@@H]1C (some centres undefined)", "group": "lower bin"}
{"molecule": "O=c1/c(=C/c2ccc([N+](=O)[O-])o2)sc2n1[C@@H](c1ccc(Cl)cc1)C=C(c1cc(F)c(Cl)cc1Cl)N=2", "group": "upper bin"}
{"molecule": "OCCCNc1ccnc2cc(Cl)ccc12", "group": "upper bin"}
{"molecule": "Cn1cc(C2=C(c3c4n(c5ccccc35)CCC(CN)C4)C(=O)NC2=O)c2ccccc21 (centres undefined)", "group": "lower bin"}
{"molecule": "Cc1nc(N2N=C(c3ccc(Cl)cc3)CCC2=O)sc1[N+](=O)[O-]", "group": "upper bin"}
{"molecule": "CN(C)CCCNC(=O)CCNC(=O)c1cc(NC(=O)c2cc(NC(=O)c3cc(NC(=O)c4nccn4C)cn3C)cn2C)cn1C", "group": "upper bin"}
{"molecule": "COc1ccc2c(O)c(/C=C3\\N=Nc4ccccc43)oc2c1C[C@@H]1CCNC[C@H]1F", "group": "middle bin"}
{"molecule": "CONC(C)=O", "group": "upper bin"}

GET /class?item= O=C(O)c1cc2c(cc1CC(Cc1ccc3c(c1)CCCC3)C(=O)O)CCCC2 (centres undefined)
upper bin

GET /class?item= NC(=O)c1ncn(C2OC(CO)C(O)C2O)c1NC=O (centres undefined)
upper bin

GET /class?item= O=[N+]([O-])c1ccc(C2=Nn3c(nnc3-c3ccc(Cl)cc3)SC2)o1
middle bin

GET /class?item= CC(=NNC(=S)Nc1cccc(C)c1)c1cccc(C(C)=NNC(=S)Nc2cccc(C)c2)n1
upper bin

GET /class?item= O=C(NCc1cccnc1)C1COc2cc(-c3cc(=O)c4ccccc4o3)ccc2O1 (centres undefined)
upper bin

GET /class?item= N#C[Se]CCN1C(=O)C2C(C1=O)[C@H]1C=C[C@@H]2S1 (some centres undefined)
lower bin

GET /class?item= O=C1C=CC2(C=C1)CCNC1=C2C(=O)c2ccccc2C1=O
upper bin

GET /class?item= C[C@]12CC[C@@H]3c4cc(O)c(O)cc4CC[C@H]3[C@@H]1CC[C@@H]2O
upper bin

---

Below, each entry is listed with its recorded TGI.
# System: SNB-19 CNS
# measurement.protocol: NCI tumour cell line growth inhibition, 48 h

Here are 9 molecules together with their reported answers.
{"molecule": "COc1cc2c(cc1OC)CC(=O)Nc1cc(OC)c(OC)cc1CC2", "TGI": "> 100 µM"}
{"molecule": "O=C(Nc1ccc(-n2cc(-c3ccncc3)c(-c3ccc(O)c(Cl)c3)n2)cc1)Nc1ccc(Cl)c(C(F)(F)F)c1", "TGI": "19 µM"}
{"molecule": "[Cl][Hg][c]1ccc(Cl)s1", "TGI": "13.4 µM"}
{"molecule": "O=C(CCCN1CCC2(CC1)CC(=O)N(N1CCOCC1)C2=O)c1ccc(F)cc1", "TGI": "> 100 µM"}
{"molecule": "Cc1nc(N2N=C(c3ccc(Cl)cc3)CCC2=O)sc1[N+](=O)[O-]", "TGI": "> 100 µM"}
{"molecule": "Cc1c2c(OCC(O)CN3CCN(c4ccccc4)CC3)nn(C)c(=O)c2c(C)n1-c1ccccc1 (stereo not given)", "TGI": "> 100 µM"}
{"molecule": "COCCNc1ccc2c3c(cccc13)C(=O)N(CCN(C)C)C2=O", "TGI": "> 25 µM"}
{"molecule": "CC/C(=C(/c1ccc(O)cc1)c1ccc(OCCN)cc1)c1ccccc1", "TGI": "19 µM"}
{"molecule": "CC1=NC2c3c(-c4ccc(Cl)cc4)cn(-c4ccc(C)cc4)c3N=CN2N1 (stereo not given)", "TGI": "> 100 µM"}

Could you now consider this next molecule?
Measured TGI of C[C@]12CC[C@H]3[C@@H](CC=C4C[C@@H](O)CC[C@@]43C)[C@@H]1C/C(=C/c1ccccc1)[C@@H]2O : > 56.5 µM

---

# Tested on: T-47D breast
# measurement.protocol: NCI tumour cell line growth inhibition, 48 h; in the data active = GI50 below about 0.43 µM; inactive = the rest
Where a SMILES comes first, the peptide text is derived from it. Bridges are numbered along the chain shown (N, C = ends). [ ]: non-standard residue; d: D form. The star is where a group is joined. ξ: configuration not given here. ξDab(CH2SO3H) = NC(CCNCS(=O)(=O)O)C(=O)O; Heptanoyl(6-Me) = CC(C)CCCCC(=O)*; Dab = NCC[CH](N)C(=O)O
Reply using exactly one outcome from active, inactive

Would you please look over these solved cases?
{"compound": "CCC(C)C1NC(=O)C(CCNCS(=O)(=O)O)NC(=O)C(NC(=O)C(CCNCS(=O)(=O)O)NC(=O)C(NC(=O)C(CCNCS(=O)(=O)O)NC(=O)CCCCC(C)C)C(C)O)CCNC(=O)C(C(C)O)NC(=O)C(CCNCS(=O)(=O)O)NC(=O)C(CCNCS(=O)(=O)O)NC(=O)C(C(C)CC)NC1=O (stereo unspecified) ({Heptanoyl(6-Me)}-[ξDab(CH2SO3H)]T[ξDab(CH2SO3H)][Dab][ξDab(CH2SO3H)]II[ξDab(CH2SO3H)][ξDab(CH2SO3H)]T; lactam 4-C; configuration not given here)", "group": "inactive"}
{"compound": "CCCCCCCCCCCCSC1=C(Cl)C(=O)C(OC)=C(OC)C1=O", "group": "active"}
{"compound": "COc1cc2ncnc(Nc3cccc(Cl)c3F)c2cc1OC(=O)N1CCN(C)C[C@H]1C", "group": "inactive"}
{"compound": "COc1ccc2c(c1)CC[C@@H]1[C@@H]2CC[C@]2(C)c3c(cc(C(=O)O)c4sccc34)C[C@@H]12", "group": "inactive"}
{"compound": "COc1cc(C(=O)N2CCN(c3ccccc3)CC2)c2ccccc2n1", "group": "active"}

Now consider a different compound.
For COc1ccc2cc(C(=O)/C=C/c3ccc(N(C)C)cc3)ccc2c1 , what call appears in the results of this test?
inactive
